# System: CEM cells HIV-1 protection, formazan growth assay
# protocol: NCI AIDS Antiviral Assay
pEC50: −log10 of the molar value.
Listed here: items and their measured pEC50.

Below: 4 molecules and their reported pEC50.
molecule | pEC50
CC(=O)c1ccc(NC(=O)C(=O)Nn2c(=S)[nH]c3ccccc3c2=O)cc1 | < 4.03
CC1(C)CC2CC(CC(C)(C)C2=O)C1=O | < 3.06
c1ccc(C2=NCCc3cc4c(cc32)OCO4)cc1 | < 3.70
NC(CSS(=O)(=O)c1ccccc1)C(=O)O (centres undefined) | < 3.70

Requested read-out: pEC50. Entry: CN(C)CCC(O)(c1ccccc1)C(O)(CCN(C)C)c1ccccc1 (centres undefined)
< 4.14

Sample O=S(=O)(Nc1ccccc1Cl)c1ccccc1 — what was its pEC50?
< 3.70

Using the record for Cc1nc2c(cc1C(=O)NN)c(=O)n(C)c(=O)n2C , report its pEC50.
< 3.70

---

# System: CEM cells HIV-1 protection, formazan growth assay
# protocol: NCI AIDS Antiviral Assay;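 active = compounds giving half or more protection of infected cells from virus-caused growth loss, again on retest; inactive = the rest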
Use one of these outcomes when replying: YES (active), NO (inactive)

compound | system-under-test | assigned-class
O=C(O)c1ccc2[nH]c(=O)oc2c1 | CEM cells HIV-1 protection, formazan growth assay | NO

Hi, sorry to bother you, what did the test record for O=C(O)CCC(NC(=O)c1ccc(OCc2nc3cc(C(F)(F)F)ccc3nc2-c2ccccc2)cc1)C(=O)O (configuration not stated) ?
NO

Test call, this compound: O=c1c2c3c(sc2nc2n1N=C(c1ccc(Cl)cc1)CS2)CCCC3
NO

Hi, do you know how Cc1nc(Nc2ccc(Cl)cc2)sc1C(=O)Nc1cccc2c(=O)[nH][nH]c(=O)c12 came out in this test?
NO

How was CCOC(=O)C(=CNC(=S)N=Nc1c(O)[nH]c2ccccc12)C(=O)OCC classified in this test?
NO

Short answer needed: outcome of this test for N/N=C1/CCN2CCCc3cccc1c32 ?
NO

Outcome? O=[N+]([O-])c1ccc(CSc2nncc3[nH]cnc23)cc1
NO

For C#CCCOC1(OC)N=NC(C)(C)O1 (configuration not stated) , which call appears in the assay record?
NO

I'd appreciate the recorded outcome for COc1ccc([C@@H]2ON(C)[C@H]3CN(C)C(=O)[C@@H]23)cc1 from this test.
NO

Could you please tell me the result logged for O=c1[nH][nH]c(=O)c2c1[nH]c(=S)n2Cc1ccccc1 in this assay?
NO

Hi, sorry to bother you, what did the test record for CN(C)CCSc1cccc(-c2cc(-c3cccs3)nc(SCCN(C)C)n2)c1 ?
NO

---

# Test system: CEM cells HIV-1 protection, formazan growth assay
# protocol: NCI AIDS Antiviral Assay;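 active means compounds giving half or more protection of infected cells from virus-caused growth loss, again on retest; inactive means the rest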
Would you mind answering with one of these outcomes? active, inactive

compound | assigned-class
Nc1ccccc1C1=Nc2cncnc2NC1 | inactive
CCCOC(=O)Nc1ccc2nc(N(C)C)sc2c1 | inactive
CCOC(=O)N/N=C(/N)c1cccc([N+](=O)[O-])c1 | inactive

Dear colleague, could you share the recorded outcome for CCOC(=O)c1cnc2[nH]ccn2c1=O when you have a moment?
inactive

// outcome(item) with item = O/N=C/[C@H]1COC2(CCCCC2)O1
inactive

Per the assay record, what outcome was assigned to CC(=O)n1c2ccccc2c2nc3nc(Oc4ccc(C)cc4)c4ccccc4c3cc21 ?
inactive

Lab log entry: CN(C)c1ccc(-c2nc3c(=O)n(C)c(=O)n(C)c3nc2-c2ccc(N(C)C)cc2)cc1 — outcome as called in the assay?
inactive

Recorded test outcome, item CCOC(=O)/C=C/SC(C)(C)C(N)C(=O)O (stereo not given)
inactive

Please let me know the test result on file for Cc1cc(N=Nc2ccc(NC(=O)c3ccc(N)cc3)cc2C)ccc1N=Nc1ccc2c(O)c(N=Nc3ccc(S(=O)(=O)O)cc3)c(S(=O)(=O)O)cc2c1 .
active

Tell me the assay call for C[C@]12CC[C@H]3[C@@H](C[C@@H](O)[C@]45C[C@@H]4CC[C@]35C)[C@@H]1CC[C@@]21C=CC(=O)O1 please.
inactive
